Overview of recorded mortality at 200 ppm for various compounds
test system: Myzus persicae (Green Peach Aphid); experiment: Activity against Myzus persicae (green peach aphid), sunflower leaf disc spray test; type: in vivo; details: foliar, 144 h, 200 ppm, mixed-age aphid population, 6 days incubation, read-out: activity (mortality) against Myzus persicae

{"columns": ["COMPOUND", "STUDY SYSTEM", "mortality at 200 ppm"],
 "data": [
  ["CN/N=C1\\CCCc2ccc(-c3sc(-c4cccnc4)nc3C)nc21", "Myzus persicae (Green Peach Aphid)", "> 80%"]
]}

Q: Output measured mortality at 200 ppm for this item: Cc1nc(-c2cccnc2)sc1-c1ccc2c(n1)/C(=N/OC(C)C)CCO2
Result: > 80%

Q: Please supply the value of reported mortality at 200 ppm for the item Cc1nc(-c2cccnc2)sc1-c1ccc2c(n1)/C(=N/NCC(F)(F)F)CCC2
Result: > 80%

Q: Indicate its recorded mortality at 200 ppm; the compound in question is Cc1nc(-c2cccnc2)sc1-c1ccc2c(n1)/C(=N/OCCc1ccc(F)cc1)CCC2
Result: > 80%

Q: Determine from records and report mortality at 200 ppm for Cc1nc(-c2cccnc2)sc1-c1ccc2c(n1)/C(=N/OCc1ccc(Cl)cc1)CCC2
Result: > 80%

Q: Return the recorded mortality at 200 ppm value; entry: C=CCO/N=C1\CCCc2ccc(-c3sc(-c4cccnc4)nc3C)nc21
Result: > 80%

Q: Retrieve mortality at 200 ppm measured for Cc1nc(-c2cccnc2)sc1-c1ccc2c(n1)/C(=N/OCC(F)F)CCC2 and print it.
Result: > 80%
